Below: a set of entries, each annotated with reported TGI.
# Tested on: HOP-92 NSCLC
# ASSAY TEXT: NCI tumour cell line growth inhibition, 48 h
API: value field is a number in µM; no unit string.

- MOLECULE: "CCOC(OC1=CCCC1)C(C)[Se]c1ccccc1 (stereo not given)"
  ASSAY ENDPOINT: "TGI"
  OBSERVED MEASUREMENT: 81.4

Proceeding to the next molecule to report its TGI.
Exercise: I'm curious: which TGI was measured for C=C[C@@]1(C)CC2(C=C(CO)C(O)O2)Oc2c1c(=O)oc1cccc(C)c21 (stereo not given in full) tested on HOP-92 NSCLC?
Key: 40.2

====

Below: a set of entries, each annotated with reported TGI.
# System: KM20L2 colon
# ASSAY TEXT: NCI tumour cell line growth inhibition, 48 h

Example entries and their recorded answers appear below.
- MOLECULE: "Cc1c(C(=N)N)oc2ccccc12"
  TGI: "> 100 µM"
- MOLECULE: "CCOC(=O)[C@@]12C(C)=CC(=O)O[C@]1(C)C[C@H]2C#N"
  TGI: "> 100 µM"
- MOLECULE: "CCN(CC)CCCNc1ccc2ncn3c4ccc(O)cc4c(=O)c1c23"
  TGI: "18.2 µM"
- MOLECULE: "Cc1ccc(NC(=O)CSc2nnc(Cc3ccccc3)o2)c(C)c1"
  TGI: "> 100 µM"
- MOLECULE: "COc1ccc(-c2c3ccccc3c(-c3ccc(OC)cc3)c3ccccc23)cc1"
  TGI: "> 100 µM"

Exercise: I'm curious: which TGI was measured for C[C@H](NS(=O)(=O)c1ccc(NC(=O)c2ccccc2)cc1)C(=O)O tested on KM20L2 colon?
Key: > 100 µM

Exercise: I'm curious: which TGI was measured for C[Si](C)(C)CC(N)=O tested on KM20L2 colon?
Key: > 100 µM

Exercise: I'm curious: which TGI was measured for CC1=Nn2c(nnc2-c2ccccc2Cl)NC(C)(C)C1 tested on KM20L2 colon?
Key: > 100 µM

====

# Test system: HCC-2998 colon
# ASSAY TEXT: NCI tumour cell line growth inhibition, 48 h; in the data active = GI50 below about 0.43 µM; inactive = the rest
Your response should consist of one outcome taken from y for active, n for inactive

# count of solved cases: 2
- SMILES INPUT: "COc1ccc2nc(NC(=O)COc3cc(/C=C\\c4cc(OC)c(OC)c(OC)c4)ccc3OC)sc2c1"
  CATEGORY LABEL: "n"
- SMILES INPUT: "N#CCCN1C/C(=C/c2ccccc2)C(=O)/C(=C/c2ccccc2)C1"
  CATEGORY LABEL: "n"

Exercise: Per the records of this test, what outcome belongs to Cc1ccnc2[nH]c(-c3cccc4ccccc34)cc(=O)c12 ?
Key: y

Exercise: Per the records of this test, what outcome belongs to COc1cc2c3c(n(CCCN(C)C)c(=O)c2cc1OC)-c1cc2c(cc1C3=O)OCO2 ?
Key: y

Exercise: Per the records of this test, what outcome belongs to c1cc2ccc3cc2cc1CNCCN1CCNCc2ccc4ccc(cc4c2)CNCCN(CCNC3)CCNCc2ccc3ccc(cc3c2)CNCC1 ?
Key: n

====

# System: HOP-62 NSCLC
# ASSAY TEXT: NCI tumour cell line growth inhibition, 48 h
ASSAY ENDPOINT: TGI (µM)
API: value field is a number in µM; no unit string.

- SMILES INPUT: "c1cc2ccc3cc2cc1CNCCN1CCNCc2ccc4ccc(cc4c2)CNCCN(CCNC3)CCNCc2ccc3ccc(cc3c2)CNCC1"
  TGI (µM): 13.2
- SMILES INPUT: "O=c1ccc2ccc(O)c3c4c(=O)ccc5ccc(O)c(c1c23)c54"
  TGI (µM): 4.86
- SMILES INPUT: "C=C1C(=O)C2=C[C@H]1C[C@H](O)C(=O)[C@]1(C)CCCC(C)(C)[C@H]1C[C@H]2O"
  TGI (µM): 25.5

Proceeding to the next molecule to report its TGI.
Exercise: Form field: reported TGI of CCN(CC)CCCNc1ccc2ncn3c4ccc(O)cc4c(=O)c1c23
Key: 19.2

Where these numbers come from: PubChem BioAssay (NCI)
